Readings of GI50 for the listed molecules
Tested on: LS180 cell line
Assay: Growth inhibition, CyQUANT Direct Cell Proliferation Assay, LS180
Type: cell-based
Settings: Homo sapiens; LS180, 120 to 168 hours; read-out: LS180 GI50
Method: SKCO1, LS180, and LS174T cell lines were purchased from ATCC. CW2 cell line was purchased from Riken. GP2D cell line was purchased from Sigma/ECACC. All cell lines were cultured in manufacturer's recommended media at 37° C., 5% CO2. […] Plates were incubated overnight and initial (To) read was performed the following day using CyQUANT Direct Cell Proliferation Assay Kit (Thermo Fisher Scientific) according to manufacturer's protocol. […]

{"Molecule": "O=C1CCC(N2Cc3cc(NC(=O)N4Cc5ccccc5C4)ccc3C2=O)C(=O)N1 (stereo not drawn)", "GI50": "> 1000 nM"}
{"Molecule": "O=C1CCC(N2Cc3cc(NC(=O)N4C[C@H](C5CC5)C[C@@H]4C4CC4)ccc3C2=O)C(=O)N1 (stereo partly drawn)", "GI50": "100 to 1000 nM"}
{"Molecule": "O=C1CCC(N2Cc3cc(NC(=O)N4CCc5cc(C6CC6)ccc54)ccc3C2=O)C(=O)N1 (stereo not drawn)", "GI50": "< 100 nM"}
{"Molecule": "Cc1cccc2c1CCN2C(=O)Nc1ccc2c(c1)CN(C1CCC(=O)NC1=O)C2=O (stereo not drawn)", "GI50": "100 to 1000 nM"}
{"Molecule": "COCc1cccc2c1CCN2C(=O)Nc1ccc2c(c1)CN(C1CCC(=O)NC1=O)C2=O (stereo not drawn)", "GI50": "100 to 1000 nM"}
{"Molecule": "COC[C@@H]1Cc2ccccc2N1C(=O)Nc1ccc2c(c1)CN(C1CCC(=O)NC1=O)C2=O (stereo in doubt) [Compound 334]", "GI50": "100 to 1000 nM"}
{"Molecule": "N#Cc1cccc2c1CCN2C(=O)Nc1ccc2c(c1)CN(C1CCC(=O)NC1=O)C2=O (stereo not drawn)", "GI50": "100 to 1000 nM"}
{"Molecule": "C[C@@H]1Cc2ccccc2N1C(=O)Nc1ccc2c(c1)CN(C1CCC(=O)NC1=O)C2=O (stereo partly drawn)", "GI50": "100 to 1000 nM"}
{"Molecule": "O=C1CCC(N2Cc3cc(NC(=O)N4CC5(CCOCC5)c5ccccc54)ccc3C2=O)C(=O)N1 (stereo not drawn)", "GI50": "< 100 nM"}
{"Molecule": "CC1CN(C(=O)Nc2ccc3c(c2)CN(C2CCC(=O)NC2=O)C3=O)c2ccccc21 (stereo in doubt)", "GI50": "100 to 1000 nM"}
{"Molecule": "O=C1CCC(N2Cc3cc(NC(=O)N4CCc5ccccc54)ccc3C2=O)C(=O)N1 (stereo not drawn)", "GI50": "100 to 1000 nM"}
{"Molecule": "COC[C@H]1Cc2c(C3CC3)cccc2N1C(=O)Nc1ccc2c(c1)CN(C1CCC(=O)NC1=O)C2=O (stereo partly drawn)", "GI50": "100 to 1000 nM"}
{"Molecule": "COC[C@@H]1Cc2ccccc2N1C(=O)Nc1ccc2c(c1)CN(C1CCC(=O)NC1=O)C2=O (stereo partly drawn) [Compound 288]", "GI50": "100 to 1000 nM"}
{"Molecule": "COC[C@H]1CN(C(=O)Nc2ccc3c(c2)CN(C2CCC(=O)NC2=O)C3=O)c2ccccc21 (stereo partly drawn)", "GI50": "< 100 nM"}
{"Molecule": "COC[C@H]1CN(C(=O)Nc2ccc3c(c2)CN(C2CCC(=O)NC2=O)C3=O)c2cccc(C(F)(F)F)c21 (stereo partly drawn)", "GI50": "100 to 1000 nM"}

---

Target: CK1α (Homo sapiens, UniProt P48729)
Construct: HEK293 clonal lines with CRISPR KI HiBiT tag on CSNK1A1
Sequence (P48729 whole entry): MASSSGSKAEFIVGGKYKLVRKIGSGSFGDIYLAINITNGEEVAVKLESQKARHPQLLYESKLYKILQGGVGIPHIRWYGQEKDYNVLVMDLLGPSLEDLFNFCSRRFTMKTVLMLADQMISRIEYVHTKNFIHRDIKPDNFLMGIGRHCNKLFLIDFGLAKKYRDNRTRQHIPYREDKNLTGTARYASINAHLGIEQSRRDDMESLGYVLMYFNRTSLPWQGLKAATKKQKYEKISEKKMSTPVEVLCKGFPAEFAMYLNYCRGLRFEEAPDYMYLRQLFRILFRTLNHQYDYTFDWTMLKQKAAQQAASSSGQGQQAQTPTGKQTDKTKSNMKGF
Sequence (Q96SW2 whole entry, further chain): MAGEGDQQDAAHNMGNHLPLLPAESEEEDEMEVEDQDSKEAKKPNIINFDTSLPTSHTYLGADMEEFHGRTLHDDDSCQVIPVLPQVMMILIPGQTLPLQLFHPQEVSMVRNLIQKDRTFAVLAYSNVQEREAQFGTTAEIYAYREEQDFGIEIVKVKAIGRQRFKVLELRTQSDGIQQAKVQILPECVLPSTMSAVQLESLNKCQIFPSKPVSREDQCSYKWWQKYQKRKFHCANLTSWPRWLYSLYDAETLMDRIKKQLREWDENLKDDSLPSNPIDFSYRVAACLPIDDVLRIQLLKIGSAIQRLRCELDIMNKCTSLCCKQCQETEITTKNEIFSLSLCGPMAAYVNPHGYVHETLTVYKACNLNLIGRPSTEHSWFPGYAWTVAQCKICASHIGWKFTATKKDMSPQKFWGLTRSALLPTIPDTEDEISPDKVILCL
Sequence (Q16531 2-1140 partner limits assumed): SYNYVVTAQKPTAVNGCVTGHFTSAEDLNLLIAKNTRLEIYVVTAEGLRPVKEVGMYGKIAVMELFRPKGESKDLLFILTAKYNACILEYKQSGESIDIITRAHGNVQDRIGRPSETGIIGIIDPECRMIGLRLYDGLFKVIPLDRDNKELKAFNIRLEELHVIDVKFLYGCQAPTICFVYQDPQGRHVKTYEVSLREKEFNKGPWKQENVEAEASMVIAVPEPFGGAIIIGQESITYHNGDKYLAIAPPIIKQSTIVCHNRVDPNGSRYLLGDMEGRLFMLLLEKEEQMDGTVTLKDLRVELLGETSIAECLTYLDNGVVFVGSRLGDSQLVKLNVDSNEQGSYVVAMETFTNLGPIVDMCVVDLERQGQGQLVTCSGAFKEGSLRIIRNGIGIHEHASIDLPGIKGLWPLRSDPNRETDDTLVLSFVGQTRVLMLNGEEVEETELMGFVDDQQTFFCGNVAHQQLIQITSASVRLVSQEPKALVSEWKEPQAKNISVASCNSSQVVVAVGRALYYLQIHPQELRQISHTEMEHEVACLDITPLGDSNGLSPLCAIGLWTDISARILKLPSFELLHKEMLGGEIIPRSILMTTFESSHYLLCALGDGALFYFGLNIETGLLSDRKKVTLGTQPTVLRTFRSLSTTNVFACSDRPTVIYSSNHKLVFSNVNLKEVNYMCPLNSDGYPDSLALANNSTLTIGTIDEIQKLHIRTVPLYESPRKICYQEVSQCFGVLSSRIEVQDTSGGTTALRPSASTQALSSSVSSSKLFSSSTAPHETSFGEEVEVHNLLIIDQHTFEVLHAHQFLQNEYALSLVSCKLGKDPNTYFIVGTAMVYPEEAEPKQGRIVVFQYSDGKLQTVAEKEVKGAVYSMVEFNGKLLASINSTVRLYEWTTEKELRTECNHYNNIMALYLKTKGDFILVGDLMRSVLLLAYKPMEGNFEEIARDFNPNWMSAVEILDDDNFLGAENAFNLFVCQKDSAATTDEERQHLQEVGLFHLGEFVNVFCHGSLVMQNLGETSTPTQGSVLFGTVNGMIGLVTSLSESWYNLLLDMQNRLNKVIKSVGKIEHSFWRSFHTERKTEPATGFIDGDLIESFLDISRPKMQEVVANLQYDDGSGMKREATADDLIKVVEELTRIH
Assay: CK1α NanoBit Assay (HiBiT-tagged CSNK1A1, HEK293 clonal lines)
Assay type: cell-based
Conditions: HEK293 HiBiT-CSNK1A1/LgBiT cells, 24 h incubation

{"Compound": "Cc1ccc2c(c1)CN(C(=O)Nc1ccc3c(c1)CN(C1CCC(=O)NC1=O)C3=O)C2 (stereo not shown) [Compound 175]", "DC50": "< 0.1 µM"}
{"Compound": "C[C@@H]1Cc2ccccc2N1C(=O)Nc1ccc2c(c1)CN(C1CCC(=O)NC1=O)C2=O (stereo partly shown) [Compound 102]", "DC50": "< 0.1 µM"}
{"Compound": "C[C@@H]1Cc2ccccc2N1C(=O)Nc1cc2c(cc1F)C(=O)N(C1CCC(=O)NC1=O)C2 (stereo partly shown) [Compound 293]", "DC50": "< 0.1 µM"}
{"Compound": "O=C1CC[C@H](N2Cc3cc(NC(=O)N4c5ccccc5C[C@@H]4C(F)(F)F)ccc3C2=O)C(=O)N1 (single isomer, unassigned) [Compound 362]", "DC50": "< 0.1 µM"}
{"Compound": "O=C1CCC(N2Cc3cc(NC(=O)N4CCCc5ncccc54)ccc3C2=O)C(=O)N1 (stereo not shown) [Compound 145]", "DC50": "> 1 µM"}
{"Compound": "O=C1CCC(N2Cc3cc(NC(=O)N4CCc5cccc(C(F)(F)F)c54)ccc3C2=O)C(=O)N1 (stereo not shown) [Compound 117]", "DC50": "0.1 to 1 µM"}
{"Compound": "O=C1CCC(N2Cc3cc(NC(=O)N4Cc5cc(C6CC6)ccc5C45COC5)ccc3C2=O)C(=O)N1 (stereo not shown) [Compound 302]", "DC50": "< 0.1 µM"}

---

Target: CK1α (Homo sapiens, UniProt P48729)
Construct: HEK293 clonal lines with CRISPR KI HiBiT tag on CSNK1A1
Test: CK1α NanoBit Assay (HiBiT-tagged CSNK1A1, HEK293 clonal lines)
Type: cell-based
Details: HEK293 HiBiT-CSNK1A1/LgBiT cells, 24 h incubation

{"Molecule": "Cc1cc(C)c2c(c1)N(C(=O)Nc1ccc3c(c1)CN(C1CCC(=O)NC1=O)C3=O)CC2 (centres unmarked)", "DC50": "< 0.1 µM"}
{"Molecule": "O=C1CCC(N2Cc3cc(NC(=O)N4CCN(c5ncccn5)CC4)ccc3C2=O)C(=O)N1 (centres unmarked)", "DC50": "0.1 to 1 µM"}
{"Molecule": "O=C1CCC(N2Cc3cc(NC(=O)N4Cc5ccncc5C4)ccc3C2=O)C(=O)N1 (centres unmarked)", "DC50": "0.1 to 1 µM"}
{"Molecule": "O=C1CCC(N2Cc3cc(NC(=O)N4CCOc5ccccc54)ccc3C2=O)C(=O)N1 (centres unmarked)", "DC50": "0.1 to 1 µM"}
{"Molecule": "O=C1CCC(N2Cc3cc(NC(=O)N4CCc5cc(F)ccc54)ccc3C2=O)C(=O)N1 (centres unmarked)", "DC50": "< 0.1 µM"}
{"Molecule": "CC1(C)CCN(C(=O)Nc2ccc3c(c2)CN(C2CCC(=O)NC2=O)C3=O)c2ccccc21 (centres unmarked)", "DC50": "< 0.1 µM"}
{"Molecule": "O=C1CCC(N2Cc3cc(NC(=O)N4CCc5cc(C(F)(F)F)ccc54)ccc3C2=O)C(=O)N1 (centres unmarked)", "DC50": "< 0.1 µM"}
{"Molecule": "CC(C)C1(c2ccccc2)CN(C(=O)Nc2ccc3c(c2)CN(C2CCC(=O)NC2=O)C3=O)C1 (centres unmarked)", "DC50": "0.1 to 1 µM"}

---

Biological target: CK1α (Homo sapiens)
Construct: HEK293 clonal lines with CRISPR KI HiBiT tag on CSNK1A1
Experiment: CK1α NanoBit Assay (HiBiT-tagged CSNK1A1, HEK293 clonal lines)
Type: cell-based
Conditions: HEK293 HiBiT-CSNK1A1/LgBiT cells, 24 h incubation

{"Compound": "O=C1CCC(N2Cc3cc(NC(=O)N4CCc5ccc(-n6cccn6)cc54)ccc3C2=O)C(=O)N1 (stereo not shown)", "DC50": "< 0.1 µM"}
{"Compound": "COCC1c2cc(C3CC3)ccc2CN1C(=O)Nc1ccc2c(c1)CN(C1CCC(=O)NC1=O)C2=O (stereo not shown)", "DC50": "< 0.1 µM"}
{"Compound": "O=C1CCC(N2Cc3cc(NC(=O)N4CCN(c5ccccn5)CC4)ccc3C2=O)C(=O)N1 (stereo not shown)", "DC50": "0.1 to 1 µM"}
{"Compound": "CC(C)[C@]12C[C@H]1CN(C(=O)Nc1ccc3c(c1)CN(C1CCC(=O)NC1=O)C3=O)C2 (stereo partly shown)", "DC50": "< 0.1 µM"}
{"Compound": "O=C1CCC(N2Cc3cc(NC(=O)N4C5CCCC4C5)ccc3C2=O)C(=O)N1 (stereo not shown)", "DC50": "< 0.1 µM"}
{"Compound": "O=C1CCC(N2Cc3cc(NC(=O)N4CCCc5cccnc54)ccc3C2=O)C(=O)N1 (stereo not shown)", "DC50": "0.1 to 1 µM"}
{"Compound": "Cc1ccc2c(c1)CCN2C(=O)Nc1ccc2c(c1)CN(C1CCC(=O)NC1=O)C2=O (stereo not shown)", "DC50": "< 0.1 µM"}
{"Compound": "O=C1CCC(N2Cc3cc(NC(=O)N4CCC(c5ccc(F)cn5)C4)ccc3C2=O)C(=O)N1 (stereo not shown)", "DC50": "0.1 to 1 µM"}
{"Compound": "O=C1CCC(N2Cc3cc(NC(=O)N4CCc5cc(C6CCOCC6)ccc54)ccc3C2=O)C(=O)N1 (stereo not shown)", "DC50": "< 0.1 µM"}
{"Compound": "CC1CCCCN1C(=O)Nc1ccc2c(c1)CN(C1CCC(=O)NC1=O)C2=O (stereo not shown)", "DC50": "0.1 to 1 µM"}
{"Compound": "O=C1CCC(N2Cc3cc(NC(=O)N4CCCC5(CCC5)C4)ccc3C2=O)C(=O)N1 (stereo not shown)", "DC50": "< 0.1 µM"}
{"Compound": "O=C1CCC(N2Cc3cc(NC(=O)N4CC(n5cccn5)Cc5ccccc54)ccc3C2=O)C(=O)N1 (stereo not shown)", "DC50": "0.1 to 1 µM"}
{"Compound": "O=C1CCC(N2Cc3cc(NC(=O)N4C[C@H](c5ccccc5)[C@H]4CO)ccc3C2=O)C(=O)N1 (stereo partly shown)", "DC50": "0.1 to 1 µM"}
{"Compound": "CC1(c2ccccc2)CN(C(=O)Nc2ccc3c(c2)CN(C2CCC(=O)NC2=O)C3=O)C1 (stereo not shown)", "DC50": "0.1 to 1 µM"}
{"Compound": "O=C1CCC(N2Cc3cc(NC(=O)N4CCc5ccncc54)ccc3C2=O)C(=O)N1 (stereo not shown)", "DC50": "< 0.1 µM"}
{"Compound": "O=C1CCC(N2Cc3cc(NC(=O)N4CC5(CCCC5)c5ccccc54)ccc3C2=O)C(=O)N1 (stereo not shown)", "DC50": "< 0.1 µM"}
